# Test system: adult human dermal fibroblasts (aHDF)
# Procedure summary: Cytotoxicity assay (MTS), general cytotoxicity
# Format: cell-based
# Measurement parameters: aHDF cells, 3 days, 25% inhibitory concentration
Assay metric: log10(IC25aHDF) (log10 of the value in µg/mL)
Scale: decimal log of IC25aHDF, IC25aHDF in µg/mL.

Worked cases, log10(IC25aHDF) given:
CCOC(=O)N1CCC(=C2c3ccc(Cl)cc3CCc3cccnc32)CC1 [Loratadine] = 0.51
CN(C)CCOC(c1ccccc1)c1ccccc1 [Diphenhydramine] = 1.50
O=C1Cc2cc(CCN3CCN(c4nsc5ccccc45)CC3)c(Cl)cc2N1 [Ziprasidone] = 0.43
O=C1O[C@H]([C@@H](O)CO)C(O)=C1O [Ascorbic acid] = 1.80
Cc1ccc(NC(=O)c2ccc(CN3CCN(C)CC3)cc2)cc1Nc1nccc(-c2cccnc2)n1 [Imatinib] = 0.43

Tell us which log10(IC25aHDF) value is on record for CC/C(=C(/CC)c1ccc(O)cc1)c1ccc(O)cc1 [Diethylstilbestrol] 0.79

Find the measured log10(IC25aHDF) of CC(=O)Nc1ccc(O)cc1 [Acetaminophen] and report it. 1.60

Provide log10(IC25aHDF) value for the following compound: O=C1NC(=O)C(c2ccccc2)(c2ccccc2)N1 [Diphenylhydantoin] 2.15
